Value source: patent US20220017627A1

tgt: T1, hIL-7R (Example 11) (human, UniProt P16871 21-239)
T1 construct: Called full length hIL-7R for the mRNA display and hIL-7R for the Biacore runs; also called full length hIL-7R; human IL-7R
T1 chain: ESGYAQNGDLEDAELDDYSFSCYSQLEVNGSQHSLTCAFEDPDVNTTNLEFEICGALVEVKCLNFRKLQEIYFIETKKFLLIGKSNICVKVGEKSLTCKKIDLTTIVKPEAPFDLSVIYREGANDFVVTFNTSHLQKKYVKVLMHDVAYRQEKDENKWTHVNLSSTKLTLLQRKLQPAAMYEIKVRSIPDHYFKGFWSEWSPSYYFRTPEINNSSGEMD
method-description: NGS enrichment ratio of the mutation in the scFv library selected at 0.2 nM hIL-7R [cont'd]
// reported 0.2 nM NGS per item
Give only the figure.

What value of measured 0.2 nM NGS is listed for 18B1 LC D50A (antibody, human IgG1, kappa, V domains shown) VH: EVQLVESGGGLVQPGRSLRLSCAASGFTFDDHAMHWVRQAPGKGLEWVSGISWNSRGIGYADSVKGRFTIFRDNAKNSLYLQMNSLRAEDTALYYCAKDEYSRGYYVLDVWGQGTTVTVSS VL: AIQLTQSPSSLSASVGDRVTITCRASQGISSALAWYQQKPGKAPKLLIYAASSLESGVPSRFSGSGSGTDFTLTISSLQPEDFATYYCQQFNSYPLWITFGQGTRLEIKR ?
0.3

State the recorded 0.2 nM NGS for this entry: 18B1 LC S53A (antibody, human IgG1, kappa, V domains shown) VH: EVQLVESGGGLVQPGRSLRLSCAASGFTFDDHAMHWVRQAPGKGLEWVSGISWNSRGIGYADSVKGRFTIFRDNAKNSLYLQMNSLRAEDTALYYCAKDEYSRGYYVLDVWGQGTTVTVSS VL: AIQLTQSPSSLSASVGDRVTITCRASQGISSALAWYQQKPGKAPKLLIYDASALESGVPSRFSGSGSGTDFTLTISSLQPEDFATYYCQQFNSYPLWITFGQGTRLEIKR
1.07

What measured 0.2 nM NGS goes with 18B1 LC S56A (antibody, human IgG1, kappa, V domains shown) VH: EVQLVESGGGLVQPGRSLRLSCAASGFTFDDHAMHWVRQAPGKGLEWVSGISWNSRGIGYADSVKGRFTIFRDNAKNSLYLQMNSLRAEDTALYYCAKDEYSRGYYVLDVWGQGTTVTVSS VL: AIQLTQSPSSLSASVGDRVTITCRASQGISSALAWYQQKPGKAPKLLIYDASSLEAGVPSRFSGSGSGTDFTLTISSLQPEDFATYYCQQFNSYPLWITFGQGTRLEIKR ?
0.96
